Assay: Pharmacokinetic profile in rats
Parameters: species or system Sprague Dawley rats
Settings: Sprague Dawley, rat, in vivo, po, 10 mg/kg
Procedure: Compounds listed in Table D are administered as a solution orally via gavage at 10 mg/kg to Sprague Dawley rats at a dosing volume of 10 ml/kg. Samples are collected via a surgically implanted cannula at selected timepoints deemed necessary to characterize pharmacokinetic parameters. Blood samples are placed on wet ice and spun down to plasma within 5 minutes of timepoint collection. Plasma samples are frozen until bioanalytical analysis. […]
MEASUREMENT NAME: Cmax (nM)

Some solved entries appear below for comparison.
CCCC(NC(=O)[C@@H]1C[C@@]2(CN1C(=O)[C@@H](NC(=O)[C@@H](NC(=O)C1CCN1C(C)(C)C)C1CCCCC1)C(C)(C)C)C(C)(C)C21CCC1)C(=O)C(=O)NC1CC1 (stereo partly shown) [Compound A-64] | 904
CCC[C@H](NC(=O)[C@@H]1C[C@@]2(CN1C(=O)[C@@H](NC(=O)[C@@H](NC(=O)[C@@H]1CCCN(CC)C1)C1CCCCC1)C(C)(C)C)C(C)(C)C21CCC1)C(=O)C(=O)NC1CC1 [Compound A-15] | 2030
CCC[C@H](NC(=O)[C@@H]1C[C@@]2(CN1C(=O)[C@@H](NC(=O)[C@@H](NC(=O)[C@@H]1CCCCN1C(C)C)C1CCCCC1)C(C)(C)C)C(C)(C)C21CCC1)C(=O)C(=O)NC(C)C [Compound A-54] | 1430
CCC[C@H](NC(=O)[C@@H]1C[C@@]2(CN1C(=O)[C@@H](NC(=O)[C@@H](NC(=O)[C@@H]1CCCCN1C(C)C)C(C)(C)C)C(C)(C)C)C(C)(C)C21CCC1)C(=O)C(=O)NC1CC1 [Compound A-44] | 1110
CCC[C@H](NC(=O)[C@@H]1C[C@@]2(CN1C(=O)[C@@H](NC(=O)[C@@H](NC(=O)[C@@H]1CCN1C(C)C)C1CCCCC1)C(C)(C)C)C(C)(C)C21CCC1)C(=O)C(=O)NC1CC1 [Compound A-62] | 796

A = CCC[C@H](NC(=O)[C@@H]1C[C@@]2(CN1C(=O)[C@@H](NC(=O)[C@@H](NC(=O)[C@H]1CCCN(CC)C1)C(C)(C)C)C(C)(C)C)C(C)(C)C21CCC1)C(=O)C(=O)NC1CC1 [Compound A-59]
B = CCC[C@H](NC(=O)C1C[C@@]2(CN1C(=O)[C@@H](NC(=O)[C@@H](NC(=O)[C@@H]1CCCN1CC)C1CCCCC1)C(C)(C)C)C(C)(C)C21CCC1)C(=O)C(=O)NC1CC1 (stereo partly shown) [Compound A-10]
Ask | Kindly identify which of A and B has the larger recorded Cmax value. Answer by quoting the chosen item's label.
Reply | B

---

Assay: Thermodynamic solubility
Format: physicochemical
Details: pH 6.8, aqueous buffer, thermodynamic from solid
MEASUREMENT NAME: solubility at 24 h (µM)

CCC[C@H](NC(=O)[C@@H]1C[C@@]2(CN1C(=O)[C@@H](NC(=O)[C@@H](NC(=O)[C@@H]1CCCN(C)C1)C1CCCCC1)C(C)(C)C)C(C)(C)C21CCC1)C(=O)C(=O)NC1CC1 [Compound A-50] | 240
CCC[C@H](NC(=O)C1C[C@@]2(CN1C(=O)[C@@H](NC(=O)[C@@H](NC(=O)[C@@H]1CCCN1CC)C1CCCCC1)C(C)(C)C)C(C)(C)C21CCC1)C(=O)C(=O)NC1CC1 (stereo partly drawn) [Compound A-10] | 24
CCC[C@H](NC(=O)[C@@H]1C[C@@]2(CN1C(=O)[C@@H](NC(=O)[C@@H](NC(=O)[C@@H]1CCCN(C)C1)C(C)(C)C)C(C)(C)C)C(C)(C)C21CCC1)C(=O)C(=O)NC1CC1 [Compound A-58] | 930
CCC[C@H](NC(=O)[C@@H]1C[C@@]2(CN1C(=O)[C@@H](NC(=O)[C@@H](NC(=O)[C@H]1CCCN(C)C1)C(C)(C)C)C1CCCCC1)C(C)(C)C21CCC1)C(=O)C(=O)NC1CC1 [Compound A-67] | 690
CCC[C@H](NC(=O)[C@@H]1C[C@@]2(CN1C(=O)[C@@H](NC(=O)[C@@H](NC(=O)[C@@H]1CCCN(CC)C1)C1CCCCC1)C(C)(C)C)C(C)(C)C21CCC1)C(=O)C(=O)NC1CC1 [Compound A-15] | 170
CCC[C@H](NC(=O)[C@@H]1C[C@@]2(CN1C(=O)[C@@H](NC(=O)[C@@H](NC(=O)[C@@H]1CCCN(C)C1)C(C)(C)C)C1CCCCC1)C(C)(C)C21CCC1)C(=O)C(=O)NC1CC1 [Compound A-66] | 600

a = CCC[C@H](NC(=O)[C@@H]1C[C@@]2(CN1C(=O)[C@@H](NC(=O)[C@@H](NC(=O)[C@H]1CCCCN1CC)C(C)(C)C)C(C)(C)C)C(C)(C)C21CCC1)C(=O)C(=O)NC1CC1 [Compound A-72]
b = CCC[C@H](NC(=O)[C@@H]1C[C@@]2(CN1C(=O)[C@@H](NC(=O)[C@@H](NC(=O)[C@H]1CCCN(CC)C1)C(C)(C)C)C(C)(C)C)C(C)(C)C21CCC1)C(=O)C(=O)NC1CC1 [Compound A-59]
Ask | Kindly identify which of a and b has the larger recorded solubility at 24 h value. Answer by quoting the chosen item's label.
Reply | b
(b: 550 µM, a: 340 µM)

---

Assay: Thermodynamic solubility
Format: physicochemical
Conditions: pH 6.8, aqueous buffer, thermodynamic from solid
Protocol: Thermodynamic solubility for the compounds of the invention listed in Table C is measured by a published literature procedure, e.g., Liping Zhou, et al., J. Pharm. Sci. (2007) 96(11): 3052-3071. The DMSO stocks of test compounds previously dissolved in 25 μL of DMSO (˜10 mM) in mini-prep vial (MPV: Whatman, with PVDF filter and 0.45 μm pore size) chamber were evaporated via a GeneVac HT-4X evaporator for approximately 1 hour, at the guard temperature of 30° C. […]
MEASUREMENT NAME: solubility at 24 h (µM)

A = CCC[C@H](NC(=O)[C@@H]1C[C@@]2(CN1C(=O)[C@@H](NC(=O)[C@@H](NC(=O)[C@H]1CCCCN1C(C)C)C1CCCCC1)C(C)(C)C)C(C)(C)C21CCC1)C(=O)C(=O)NC1CC1 [Compound A-5]
B = CCC[C@H](NC(=O)[C@@H]1C[C@@]2(CN1C(=O)[C@@H](NC(=O)[C@@H](NC(=O)[C@@H]1CN(C)CCN1C(C)C)C1CCCCC1)C(C)(C)C)C(C)(C)C21CCC1)C(=O)C(=O)NC1CC1 [Compound A-43]
Ask | # compare solubility at 24 h for A vs B ; return the one with the smaller value Answer by quoting the chosen item's label.
Reply | A
(A: 44 µM, B: 290 µM)

---

Assay: Pharmacokinetic profile in rats
Set-up: species or system Sprague Dawley rats
Conditions: rat, in vivo
MEASUREMENT NAME: Bioavailability (% F)

Some solved entries appear below for comparison.
CCC[C@H](NC(=O)[C@@H]1C[C@@]2(CN1C(=O)[C@@H](NC(=O)[C@@H](NC(=O)[C@@H]1CCN1C(C)C)C1CCCCC1)C(C)(C)C)C(C)(C)C21CCC1)C(=O)C(=O)NC1CC1 | 36
CCC[C@H](NC(=O)C1C[C@@]2(CN1C(=O)[C@@H](NC(=O)[C@@H](NC(=O)[C@@H]1CCCN1CC)C1CCCCC1)C(C)(C)C)C(C)(C)C21CCC1)C(=O)C(=O)NC1CC1 (some centres unmarked) | 46
CCC[C@H](NC(=O)[C@@H]1C[C@@]2(CN1C(=O)[C@@H](NC(=O)[C@@H](NC(=O)[C@@H]1CCCN(CC)C1)C1CCCCC1)C(C)(C)C)C(C)(C)C21CCC1)C(=O)C(=O)NC1CC1 | 42

a = CCC[C@H](NC(=O)[C@@H]1C[C@@]2(CN1C(=O)[C@@H](NC(=O)[C@@H](NC(=O)[C@@H]1CCCCN1C(C)C)C(C)(C)C)C(C)(C)C)C(C)(C)C21CCC1)C(=O)C(=O)NC1CC1
b = CCC[C@H](NC(=O)[C@@H]1C[C@@]2(CN1C(=O)[C@@H](NC(=O)[C@@H](NC(=O)[C@@H]1CCCCN1C(C)C)C1CCCCC1)C(C)(C)C)C(C)(C)C21CCC1)C(=O)C(=O)NC(C)C
Ask | Kindly identify which of a and b has the larger recorded Bioavailability value. Answer by quoting the chosen item's label.
Reply | a
(a: 43 % F, b: 28 % F)

---

Assay: Thermodynamic solubility
Assay type: physicochemical
Conditions: pH 1, simulated gastric fluid, thermodynamic from solid
MEASUREMENT NAME: solubility at 24 h (µM)

CCC[C@H](NC(=O)[C@@H]1C[C@@]2(CN1C(=O)[C@@H](NC(=O)[C@@H](NC(=O)[C@H]1CCCCN1CC)C(C)(C)C)C(C)(C)C)C(C)(C)C21CCC1)C(=O)C(=O)NC1CC1 | 840
CCC[C@H](NC(=O)[C@@H]1C[C@@]2(CN1C(=O)[C@@H](NC(=O)[C@@H](NC(=O)[C@H]1CCCN(CC)C1)C(C)(C)C)C(C)(C)C)C(C)(C)C21CCC1)C(=O)C(=O)NC1CC1 | 840
CCC[C@H](NC(=O)[C@@H]1C[C@@]2(CN1C(=O)[C@@H](NC(=O)[C@@H](NC(=O)[C@@H]1CCCN(C)C1)C(C)(C)C)C(C)(C)C)C(C)(C)C21CCC1)C(=O)C(=O)NC1CC1 | 960
